test: self-splicing fitness, log relative to wild type (ln ratio); higher = more splicing; Tetrahymena group I intron in knt gene, E. coli kanamycin selection, DiMSum; sequences stand for … in CUCUCU…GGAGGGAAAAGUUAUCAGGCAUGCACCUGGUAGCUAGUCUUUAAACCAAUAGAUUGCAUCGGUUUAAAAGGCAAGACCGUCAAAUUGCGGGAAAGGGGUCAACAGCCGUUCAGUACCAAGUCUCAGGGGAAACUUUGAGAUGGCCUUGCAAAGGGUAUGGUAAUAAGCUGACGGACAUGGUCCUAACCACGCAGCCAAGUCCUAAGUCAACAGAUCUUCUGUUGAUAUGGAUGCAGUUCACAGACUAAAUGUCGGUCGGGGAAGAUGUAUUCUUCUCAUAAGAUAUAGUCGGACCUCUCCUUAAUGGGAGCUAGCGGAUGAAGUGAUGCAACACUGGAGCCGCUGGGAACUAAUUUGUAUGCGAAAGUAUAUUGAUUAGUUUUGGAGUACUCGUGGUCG; details: 30 °C;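 note: selection with 25 µg/mL kanamycin versus none on LB agar overnight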
outcome measure: self-splicing fitness (ln)

- AGCGAGCAAUAUUACGUAGA: -3.17
- GGACAGCAAUAUUACGGCCG: -0.0795
- UCCAAGCAAUAUUACGAGUG: -2.75
- UCCCAGCAAUAUUACGAUGU: -2.1
- UCAGAGCAAUAUUACGGUGA: -0.792
- CGGCAGCAAUAUUACGGCCU: -1.23
- CCCUAGCAAUAUUACGGCUU: -3.76
- AUGAAGCAAUAUUACGAUUG: -2.6
